- System: tyrosinase
- experimental-protocol: Stability assessed as half life at 50 uM by HPLC analysis in presence of mushroom tyrosinase
- Type: ADME
metric-name: half-life at 50 µM (min)
Answers are plain numbers, in min.

Recorded half-life at 50 µM, per entry:
smiles-representation: CCOC(=O)c1ccc(/N=N/N(C)C(=O)NCCc2ccc(O)c(O)c2)cc1
readout-number: 6.1

smiles-representation: CC(=O)c1ccc(/N=N/N(C)C(=O)NCCc2ccc(O)c(O)c2)cc1
readout-number: 9.9

smiles-representation: CCOC(=O)c1ccc(/N=N/N(C)C(=O)NCCc2ccc(O)cc2)cc1
readout-number: 12.9

Provide each entry's half-life at 50 µM from the list below.
1. CC(=O)c1ccc(/N=N/N(C)C(=O)NCCc2ccc(O)cc2)cc1
2. CN(/N=N/c1ccc(C#N)cc1)C(=O)NCCc1ccc(O)cc1

Output:
1: 13; 2: 11.8

Provide each entry's half-life at 50 µM from the list below.
1. Cc1ccc(/N=N/N(C)C(=O)NCCc2ccc(O)c(O)c2)cc1
2. Cc1ccc(/N=N/N(C)C(=O)NCCc2ccc(O)cc2)cc1

Output:
[8.4, 18.2]

---

- experimental-protocol: Apparent partition coefficient in phosphate buffer of pH 7.4 by HPLC analysis
- Assay type: physicochemical
Record form. Attribute: logD. Fill in for each entry.

Recorded logD, per entry:
smiles-representation: CC(=O)c1ccc(/N=N/N(C)C(=O)NCCc2ccc(O)c(O)c2)cc1
logD: 3.24
--
smiles-representation: CCOC(=O)c1ccc(/N=N/N(C)C(=O)NCCc2ccc(O)cc2)cc1
logD: 3.96
--
smiles-representation: CCOC(=O)c1ccc(/N=N/N(C)C(=O)NCCc2ccc(O)c(O)c2)cc1
logD: 3.78

Provide each entry's logD from the list below.
1. Cc1ccc(/N=N/N(C)C(=O)NCCc2ccc(O)cc2)cc1
2. CN(/N=N/c1ccc(C#N)cc1)C(=O)NCCc1ccc(O)cc1
3. Cc1ccc(/N=N/N(C)C(=O)NCCc2ccc(O)c(O)c2)cc1
4. CC(=O)c1ccc(/N=N/N(C)C(=O)NCCc2ccc(O)cc2)cc1

Output:
1: 3.9; 2: 2.89; 3: 4.17; 4: 3.25

---

- Organism: Homo sapiens
- experimental-protocol: Stability assessed as hydrolytic half life in 80% human plasma at 10 uM by HPLC analysis
metric-name: half-life at 10 µM (h)
Numbers only, in h.

smiles-representation: CCOC(=O)c1ccc(/N=N/N(C)C(=O)NCCc2ccc(O)cc2)cc1
readout-number: 71.5
//
smiles-representation: CC(=O)c1ccc(/N=N/N(C)C(=O)NCCc2ccc(O)c(O)c2)cc1
readout-number: 9.3
//
smiles-representation: CCOC(=O)c1ccc(/N=N/N(C)C(=O)NCCc2ccc(O)c(O)c2)cc1
readout-number: 14.7

Task: Could you share which half-life at 10 µM value was measured for Cc1ccc(/N=N/N(C)C(=O)NCCc2ccc(O)c(O)c2)cc1 ?
Output: 5.66

---

- experimental-protocol: Chemical stability in phosphate buffer of pH 7.4 at 10 uM by HPLC analysis
- Assay type: physicochemical
- applied-conditions: pH 7.4, 10 µM
metric-name: Stability (days)
Numbers only, in days.

smiles-representation: Cc1ccc(/N=N/N(C)C(=O)NCCc2ccc(O)c(O)c2)cc1
metric-name: Stability
readout-number: 2

Provide each entry's Stability from the list below.
1. CC(=O)c1ccc(/N=N/N(C)C(=O)NCCc2ccc(O)cc2)cc1
2. CN(/N=N/c1ccc(C#N)cc1)C(=O)NCCc1ccc(O)cc1
3. CCOC(=O)c1ccc(/N=N/N(C)C(=O)NCCc2ccc(O)cc2)cc1

Output:
1: 15; 2: 15; 3: 15

---

- system-name: Tyrosinase (Agaricus bisporus) (UniProt O42713)
- Sequence (O42713 whole entry): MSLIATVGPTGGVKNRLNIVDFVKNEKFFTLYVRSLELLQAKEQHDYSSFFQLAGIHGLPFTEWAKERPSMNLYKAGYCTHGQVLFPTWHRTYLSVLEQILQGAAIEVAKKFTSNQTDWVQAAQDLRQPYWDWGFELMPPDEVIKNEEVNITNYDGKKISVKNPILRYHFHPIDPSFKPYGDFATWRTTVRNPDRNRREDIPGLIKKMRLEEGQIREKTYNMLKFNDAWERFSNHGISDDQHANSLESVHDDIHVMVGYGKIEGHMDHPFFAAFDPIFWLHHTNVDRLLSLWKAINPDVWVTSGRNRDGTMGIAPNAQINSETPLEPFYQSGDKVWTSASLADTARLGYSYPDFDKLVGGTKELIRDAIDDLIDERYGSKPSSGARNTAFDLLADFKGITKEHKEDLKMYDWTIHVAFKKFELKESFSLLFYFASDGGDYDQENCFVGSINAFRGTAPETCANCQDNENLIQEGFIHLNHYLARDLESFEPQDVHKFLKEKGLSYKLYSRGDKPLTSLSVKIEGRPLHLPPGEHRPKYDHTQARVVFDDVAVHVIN
- experimental-protocol: Binding affinity to Mushroom tyrosinase assessed as compound turnover by HPLC analysis
metric-name: Activity (s⁻¹)
Give bare numbers, in s⁻¹.

smiles-representation: CN(/N=N/c1ccc(C#N)cc1)C(=O)NCCc1ccc(O)cc1
u: s⁻¹
readout-number: 0.6

Provide each entry's Activity from the list below.
1. NCCc1ccc(O)c(O)c1
2. CCOC(=O)c1ccc(/N=N/N(C)C(=O)NCCc2ccc(O)c(O)c2)cc1
3. NCCc1ccc(O)cc1

Output:
1: 439; 2: 6; 3: 25.9
